# Test system: Trachea
# procedure_summary: Inhibition of KCl-induced contraction in Sprague-Dawley rat trachea assessed as tracheal tension at 10^-9 mol/L (reference value: 2.16 to 2.59 g)
# Type: functional
measured_attribute: Activity (g)

>>> experimental_value("C[C@H]1CC[C@H]2N(C1)C[C@H]1[C@@H]3C[C@H]4[C@@H](CC(=O)[C@H]5C[C@@H](O[C@@H]6O[C@H](CO)[C@@H](O)[C@H](O)[C@H]6O)CC[C@@]54C)[C@@H]3CC[C@@H]1[C@@]2(C)O")
2.33
>>> experimental_value("C[C@H]1CC[C@H]2[C@@](C)(O)[C@@H]3CC[C@@H]4[C@@H](C[C@H]5[C@H]4CC(=O)[C@H]4C[C@@H](O)CC[C@@]45C)[C@@H]3C[N+]2([O-])C1 (stereo partly specified)")
2.3
>>> experimental_value("C[C@H]1CC[C@@H]2N(C1)C[C@H]1[C@@H]3C[C@H]4[C@@H](CC(=O)[C@H]5C[C@@H](O[C@@H]6O[C@H](CO)[C@@H](O)[C@H](O)[C@H]6O)CC[C@@]54C)[C@@H]3CC[C@H]1[C@]2(C)O")
2.4
>>> experimental_value("C[C@H]1CC[C@@H]2N(C1)C[C@H]1[C@@H]3C[C@H]4[C@@H](CC(=O)[C@H]5C[C@@H](O)CC[C@@]54C)[C@@H]3CC[C@H]1[C@]2(C)O")
2.44
>>> experimental_value("Cc1c([C@H](C)[C@@H]2NC[C@@H](C)C[C@H]2O)ccc2c1C[C@H]1[C@H]2CC(=O)[C@H]2C[C@@H](O)CC[C@@]21C")
2.23
>>> experimental_value("C[C@@H]1CN[C@H]2[C@@H](C)[C@@]3(CC[C@]4(O)[C@@H]5CC(=O)[C@H]6C[C@@H](O)CC[C@]6(C)[C@H]5C[C@]45O[C@]53C)O[C@@H]2C1")
2.34
